Parameter melting point: see the listing below.
RECORDED_ENDPOINT: melting point

# MOLECULE, TEST_VALUE
data = [
    ("Cc1c(S(=O)(=O)Cl)sc2cc(F)ccc12", "138 to 140 °C"),
    ("CC(Cl)C(=O)Nc1c(Cl)cccc1Cl (configuration not stated)", "144 to 146 °C"),
    ("Cc1ccc([N+](=O)[O-])cc1C(C)Cl (configuration not stated)", "44 to 46 °C"),
    ("O=Cc1ncc(-c2cccc(Br)c2)[nH]1", "209 to 211 °C"),
    ("CC(N)c1ccc(NS(C)(=O)=O)cc1 (configuration not stated)", "142 to 144 °C"),
    ("Cc1ccc(-c2csc(=O)[nH]2)cc1", "219 to 221 °C"),
    ("CC(C(=O)O)n1c(S)nc2ccccc2c1=O (configuration not stated)", "238 to 240 °C"),
    ("Nc1nc2c(ccc3ccccc32)s1", "134 to 136 °C"),
    ("Cc1cccc(CNCc2cccc(C)n2)n1", "44 to 46 °C"),
    ("O=C1NC(=O)N(c2ccccc2)C1=O", "213 to 215 °C"),
    ("Cc1nc(-c2ccc(I)cc2)n[nH]1", "197 to 199 °C"),
    ("NNC(=S)N1CCOCC1", "181 to 183 °C"),
    ("N#CCc1ccc([N+](=O)[O-])cn1", "62 to 64 °C"),
    ("NS(=O)(=O)c1cc(C(=O)O)cc2c1CCC2", "299 to 301 °C"),
    ("CC(C)c1nc(C#N)c(NN)o1", "103 to 105 °C"),
    ("O=C(Nc1ccccn1)C1CCCNC1 (configuration not stated)", "94 to 96 °C"),
    ("O=C(O)c1cnoc1-c1ccc(Cl)s1", "191 to 193 °C"),
    ("O=c1[nH]c(-c2ncccn2)no1", "221 to 223 °C"),
    ("CCNc1nc(C)c(C(=O)OCC)s1", "102 to 104 °C"),
    ("Cc1cc(O)cc(O)n1", "324 to 327 °C"),
    ("COc1ccc2c(c1)c(C(=O)O)c(C)n2C1CCCC1", "174 to 176 °C"),
    ("Nc1ccnc(Oc2ccccc2Cl)c1", "121 to 123 °C"),
    ("CN1CCCc2ccc(S(=O)(=O)Cl)cc21", "64 to 66 °C"),
    ("CC(C)Cn1ncc(C(=O)O)c1C(F)F", "99 to 101 °C"),
    ("C=CC(=O)Nc1cccc(C#N)c1", "117 to 119 °C"),
    ("O=C(Nc1cccc(N2CCOC2=O)c1)OCC(F)(F)F", "152 to 154 °C"),
    ("O=C(O)c1csc(Nc2ccccn2)n1", "298 to 300 °C"),
    ("CC1(C)C(=O)Nc2ccccc2N1C(=O)CCl", "170 to 172 °C"),
    ("CCOc1cc(C=O)ccc1OCc1c(Cl)cccc1Cl", "115 to 117 °C"),
    ("COC(=O)c1sccc1S(N)(=O)=O", "120 to 122 °C"),
    ("O=S(=O)(c1ccccc1)n1c(I)cc2cccnc21", "109 to 111 °C"),
    ("NC(=O)c1ccc(Br)c(F)c1", "167 to 169 °C"),
    ("COc1ccc(-c2cc(C(=O)O)[nH]n2)cc1OC", "225 to 227 °C"),
    ("Nc1cccc(NC(=O)N2CCCCCC2)c1", "121 to 123 °C"),
    ("COC(=O)c1ccc(S(N)(=O)=O)c([N+](=O)[O-])c1", "139 to 141 °C"),
    ("Cc1ccc(N)cc1S(=O)(=O)N(C)C", "80 to 84 °C"),
    ("CCO/C=C(\\C#N)c1nc(C)cs1", "70 to 72 °C"),
    ("NC1CCCCC1CO (configuration not stated)", "132 to 135 °C"),
    ("CCCC(NC(=O)Cc1ccccc1)C(=O)O (configuration not stated)", "133 to 135 °C"),
    ("NC(=NO)c1ccc(Br)s1", "124 to 126 °C"),
    ("CN1CCC(Nc2ccc3cn[nH]c3c2)CC1", "165 to 167 °C"),
    ("NS(=O)(=O)c1ccc2c(c1)COC2", "146 to 148 °C"),
    ("Cc1nc(NC(=N)N)nc2ccccc12", "339 to 341 °C"),
    ("Nc1cccc(NC(=O)c2cccs2)c1", "134 to 136 °C"),
    ("Oc1ccnc2c(OC(F)(F)F)cccc12", "145 to 147 °C"),
    ("Cc1c(C(=O)O)c(=O)oc2ccc(Br)cc12", "179 to 181 °C"),
    ("Nc1ccc2c(c1)CCN2C(=O)c1ccoc1", "173 to 175 °C"),
    ("Nc1ccc(C(=O)N2CCOCC2)c(Cl)c1", "205 to 207 °C"),
    ("NS(=O)(=O)Cc1ccc([N+](=O)[O-])cc1Br", "200 to 202 °C"),
    ("Cc1nc(/C=C/C(=O)O)cs1", "177 to 179 °C"),
    ("O=c1cc(CO)nc2sccn12", "193 to 195 °C"),
    ("O=C1CCCc2c(Br)cccc21", "50 to 52 °C"),
    ("Cc1cc(C)cc(C(=O)N2CCNCC2)c1", "125 to 127 °C"),
    ("Ic1ccc(OCc2cccnc2)cc1", "72 to 74 °C"),
    ("O=C1CCc2c(Cl)cccc21", "84 to 86 °C"),
    ("Cc1cccc(C(=O)N2CCSCC2)c1O", "88 to 90 °C"),
    ("Cc1cc(C)cc(C2(C(=O)O)CC2)c1", "164 to 166 °C"),
]

* * *

Parameter melting point: see the listing below.
RECORDED_ENDPOINT: melting point

# MOLECULE, TEST_VALUE
records = [
    ("Cc1ccc(N(C(=O)CCl)C2C=CS(=O)(=O)C2)cc1 (stereo not given)", "118 to 120 °C"),
    ("COc1ccc(N)cc1NS(C)(=O)=O", "125 to 127 °C"),
    ("O=C(O)CCSCc1nc2ccccc2c(=O)[nH]1", "193 to 195 °C"),
    ("CCOC(=O)c1sc2ncc(C#N)cc2c1C", "181 to 183 °C"),
    ("ON=Cc1c(Cl)nc2ccccn12", "209 to 211 °C"),
    ("Brc1cnn(-c2nccs2)c1", "78 to 80 °C"),
    ("Cc1ccccc1C(N)CO (stereo not given)", "99 to 101 °C"),
    ("O=C(O)C(F)(F)c1ccc(F)cc1", "99 to 101 °C"),
    ("O=C(c1ccc(F)cc1)c1ccc(C(F)(F)F)cc1", "100 to 102 °C"),
    ("O=C(Nc1ccccc1C(=O)O)OCc1ccccc1", "129 to 131 °C"),
    ("Cc1ccc(F)c(NC(=S)NN)c1", "133 to 135 °C"),
    ("O=C(O)c1cc(-c2ccccc2F)on1", "182 to 184 °C"),
    ("O=C(CCl)NCC(F)(F)F", "51 to 53 °C"),
    ("CN(C)CCCNS(=O)(=O)c1cccc(C#N)c1", "101 to 103 °C"),
    ("CCOCCn1c(N)cc(=O)[nH]c1=O", "257 to 259 °C"),
    ("COC(=O)Cn1cc(C(C)=O)nn1", "79 to 81 °C"),
    ("COc1cc(CC#N)ccc1SC(F)F", "41 to 43 °C"),
    ("CCS(=O)(=O)c1ccc2oc(N)nc2c1", "209 to 211 °C"),
    ("O=C(CCl)N(Cc1ccc(F)cc1)C1CCCCC1", "73 to 75 °C"),
    ("O=C(O)CSc1nnc(-c2cccs2)n1C1CC1", "229 to 231 °C"),
    ("Cc1cc(Cl)c2c(c1)C(=O)C(=O)N2", "173 to 175 °C"),
    ("NC(=O)CCC(NS(=O)(=O)c1cccc(C(F)(F)F)c1)C(=O)O (stereo not given)", "164 to 166 °C"),
    ("CC(C)n1c(N)nnc1S", "189 to 191 °C"),
    ("COc1ccccc1N1C(=O)C=CC1=O", "90 to 91 °C"),
    ("CC(O)c1c(Cl)nc2sccn12 (stereo not given)", "107 to 109 °C"),
    ("N#Cc1ccnc(Oc2ccccc2Cl)c1", "79 to 81 °C"),
    ("Cc1ccc(-c2nc(C(=O)O)cs2)n1C", "139 to 141 °C"),
    ("CS(=O)(=O)c1ccsc1C(=O)O", "179 to 181 °C"),
    ("COc1ccc(CNC(=O)CCl)cc1", "103 to 105 °C"),
    ("CCCc1noc2nc(C3CC3)cc(C(=O)O)c12", "142 to 144 °C"),
    ("Cc1cccc(-n2c(C)cc(/C=C(\\C#N)C(=O)O)c2C)c1", "75 to 77 °C"),
    ("NCc1cccc(NC(=O)c2ccncc2)c1", "128 to 130 °C"),
    ("CS(=O)(=O)N1CCC(C(=O)O)CC1", "159 to 161 °C"),
    ("COc1ccc(CCn2c(S)nc3ccccc3c2=O)cc1OC", "223 to 225 °C"),
    ("COC(=O)C1CCN(c2nc3ccccc3s2)CC1", "91 to 93 °C"),
    ("Cc1nc(N)sc1-c1ccccc1", "163 to 165 °C"),
    ("Nc1cccc(C(=O)Nc2cccc(C(F)(F)F)c2)c1", "114 to 115 °C"),
    ("CCNC(=O)c1cccnc1Cl", "47 to 49 °C"),
    ("O=C(CCl)Nc1ccc(S(=O)(=O)N2CCOCC2)cc1", "145 to 147 °C"),
    ("CC1CCc2c(sc3nc(CN4CCOCC4)nc(Cl)c23)C1 (stereo not given)", "55 to 57 °C"),
    ("C#Cc1cccc(NCC(=O)N2CCOCC2)c1", "185 to 187 °C"),
    ("CN(C)c1nc(=NN)cc[nH]1", "144 to 146 °C"),
    ("CC(NC(=O)c1ccc(Br)o1)C(=O)O (stereo not given)", "169 to 171 °C"),
    ("COC(=O)c1cncnc1O", "201 to 203 °C"),
    ("O=C(O)c1ccc(NS(=O)(=O)C=Cc2ccccc2)cc1", "254 to 256 °C"),
    ("Cc1ccc(=O)n(CC(=O)O)n1", "249 to 251 °C"),
    ("O=C(O)CNS(=O)(=O)c1cccc2c1N=S=N2", "270 to 272 °C"),
    ("CCOc1c(Cl)cc(C(=O)O)cc1OC", "116 to 118 °C"),
    ("O=C(O)c1cc(Br)c(S(=O)(=O)Cl)c(Br)c1", "199 to 201 °C"),
    ("O=S1(=O)C=CCC1", "62 to 64 °C"),
    ("OC1CCCC1n1cccn1 (stereo not given)", "48 to 50 °C"),
    ("N#CCN1CCc2ccc(N)cc21", "87 to 89 °C"),
    ("Nc1ccc(NC(=O)c2ccccc2)cc1C(F)(F)F", "130 to 132 °C"),
    ("CC(CC(=O)O)c1cccc(C(F)(F)F)c1 (stereo not given)", "83 to 85 °C"),
    ("COC(=O)c1cc(N2CCOCC2)ccc1N", "106 to 108 °C"),
]
